Hi there, I'd appreciate the recorded protein stability index for every entry that follows.
experiment: protein stability index of a GFP-peptide fusion (yeast GPS) (PSI 1-4); higher = more stable; sorted into four equal gates, so the index is relative within each strain; conditions: doa10∆
One number for each entry.

CHAIN_SEQUENCE: HEKIEDEDEDNDLDEDD [RPN4]
protein stability index: 3.56

Hey, quick one: what's protein stability index for each of these?
1. RENALYDYYALQLLPLQ [SNF2]
2. QLIKVAVHNGDRKHVAA [RPL9B]
3. VKEQTEAAKKSEKKAKK [RPL34A]
4. GLNDLVEQYKFRETTHS [BRR2]
5. SSIQESLLSLVGHLSIL [ECM29]
6. EFKIEQNNEQNPIDPFN [YDL116W/NUP84]
7. KRNSDKVEYKIVHDDPA [ITC1]

Key:
1. 2.63
2. 2.09
3. 3.36
4. 3.16
5. 2.01
6. 2.96
7. 2.12

Hey, quick one: what's protein stability index for each of these?
1. QFVDMVLPNTALKTSIQ [FAS1]
2. GCEANIHSLVKQRLDLA [YIL149C/MLP2]
3. QLEGFESRKAFFLGYMI [RPB2]
4. MDLLKFSSLAISEINFL [CSI1]
5. QQVPPLPDELTLSYDDI [DLS1]
6. LPMDTNLFKINSIDVPI [YMR129W/POM152]

Key:
1. 2.5
2. 3.06
3. 1.22
4. 2.1
5. 2.56
6. 1.98

Hey, quick one: what's protein stability index for each of these?
1. RLLEKSELPDIYSRDIG [SNF2]
2. TKFKVRGSSSLYTLVIN [RPL38]
3. LTGNQLPTPTPTEMEPD [SWI1]
4. GLYKMMEERDGAKFENI [AAR2]
5. LSILNEIKKVTQIVAKF [SIN4]
6. EGQENNYNSTSRSTEKK [SIR4]

Key:
3.12
2.08
2.67
1.49
3.13
3.3

Hey, quick one: what's protein stability index for each of these?
1. YKLNVRSNDPQSSLSKV [NUT2]
2. DKLEKVTHDCYRVTLES [RPC34]
3. PLDTIETELPTLSLPDS [SMC1]

Key:
1: 3.21; 2: 3.37; 3: 3

Hey, quick one: what's protein stability index for each of these?
1. AQFIVISLRNNMFELAQ [SMC4]
2. ASEVATHSKLFADKKRD [PRP8]
3. DLEHKEDCVEEFFHLQH [QCR6]
4. VRNTAPNIRELGVKNLG [YCG1]
5. FITKHLPLLILENSSRS [NUT1]

Key:
[2.14, 2.51, 2.77, 2.88, 1.36]

Hey, quick one: what's protein stability index for each of these?
1. KMVKAWNLNQFQIEADF [ASC1]
2. AAFEKRYRVDLLNTDHT [RPO21]
3. TVRLVNLFSSTGFKGLL [SRB2]
4. PDENHDNTSHDEQDDDN [BRN1]
5. VENDTFIERNFTPQEIE [FAS2]
6. FVIRREVTKGEKTYTKA [RPS6A]
7. AAAAVCEKWAASSWAKK [RPL14A]

Key:
[2.58, 3.11, 2.31, 3.11, 2.87, 3.24, 2.52]

Hey, quick one: what's protein stability index for each of these?
1. LNTLNNVVEIWVFSYLR [SIR3]
2. LVYDVKGRFAVHRITDE [RPS4A]
3. QAKLKKNVETLEEKILA [SMC4]
4. DEDEDEDEDDDDDDDED [QCR6]
5. RANLRKYREGQVLFQGL [POP1]

Key:
[1.56, 3.25, 3.09, 2.25, 2.83]

Hey, quick one: what's protein stability index for each of these?
1. EPMKQLNATKISPSAPS [YAR002W/NUP60]
2. AENDVIEATDLGNIASS [BRR2]
3. SGKSNTSNDASNKKETK [ITC1]
4. KQYLSASFSLKNGDKPH [RPL6A]
5. LSDYEVLKFLTDLEKKH [RPC17]

Key:
1. 2.73
2. 3.05
3. 3.14
4. 2.34
5. 3.38

###

experiment: protein stability index of a GFP-peptide fusion (yeast GPS) (PSI 1-4); higher = more stable; sorted into four equal gates, so the index is relative within each strain; conditions: doa10∆
READOUT_NAME: protein stability index

Record excerpt, results attached:
CHAIN_SEQUENCE: NPVALEQKLVDLLKFEN [BRR2]
READOUT_NAME: protein stability index
OBSERVED_VALUE: 2.94
//
CHAIN_SEQUENCE: LQQQQQVVTTVASQSPH [SNF6]
READOUT_NAME: protein stability index
OBSERVED_VALUE: 1.81
//
CHAIN_SEQUENCE: HRSKKDQDQYLEIAKDF [IRR1]
READOUT_NAME: protein stability index
OBSERVED_VALUE: 3.15
//
CHAIN_SEQUENCE: MSDVEEVVEVQEETVVE [RPS12]
READOUT_NAME: protein stability index
OBSERVED_VALUE: 3.15

With those in mind, consider the next sequence.
Exercise: I would be grateful if you could share the reported protein stability index for ITYDKQEPSASQVKDSV [SRP68] .
Key: 3.14

###

experiment: protein stability index of a GFP-peptide fusion (yeast GPS) (PSI 1-4); higher = more stable; sorted into four equal gates, so the index is relative within each strain; details: pdr5∆
READOUT_NAME: protein stability index

Record excerpt, results attached:
CHAIN_SEQUENCE: MKRNCGQIITLFSSRRL [RMP1]
protein stability index: 2.46
//
CHAIN_SEQUENCE: QAPTTGFSFGSQLGGNK [YJL041W/NSP1]
protein stability index: 3.01

Hey, quick one: what's protein stability index for each of these?
1. IAIAGTGQIEGLLDYMR [COR1]
2. EKDLEHWLQLAKGVYRP [POP1]
3. WRAIIKAIFPNTVDGDL [FAS1]
4. NLPKDKSGIPEFTPADP [SSN2]

Key:
[3.54, 3, 2.75, 3.12]

###

experiment: protein stability index of a GFP-peptide fusion (yeast GPS) (PSI 1-4); higher = more stable; sorted into four equal gates, so the index is relative within each strain; details: doa10∆
READOUT_NAME: protein stability index
Numbers only.

Record excerpt, results attached:
CHAIN_SEQUENCE: RMKQYLKTKLLEEVEGS [RPB7]
protein stability index: 3.09
--
CHAIN_SEQUENCE: ANVEILAVEDKPSPIDS [CSL4]
protein stability index: 2.98
--
CHAIN_SEQUENCE: STLQHFQETLDSTVVYP [MED8]
protein stability index: 2.99
--
CHAIN_SEQUENCE: EECGRTIHRSFTICLND [CSN12]
protein stability index: 2.93
--
CHAIN_SEQUENCE: NDEVNEDEEDDNISSFH [YCG1]
protein stability index: 3.18

Hey, quick one: what's protein stability index for each of these?
1. EVWSVSWNLTGTILSSA [YGL100W/SEH1]
2. RTSTRGRGRGRGRGRGR [SNF2]
3. HFIQKLHTARKILVLTG [SIR2]

Key:
[1.7, 3.41, 1.74]

Hey, quick one: what's protein stability index for each of these?
1. TRIKLLLTKNVSCYRPR [RPS6A]
2. KAFKNNSSKYYINEKES [SMC4]
3. RTYSKTYSTPKRPYESS [RPS9A]

Key:
1. 2.11
2. 2.54
3. 2.19

Hey, quick one: what's protein stability index for each of these?
1. KKASEISVSSRSDREYP [SRP14]
2. QNPLPTRFEVELEFIQS [SOH1]
3. SSNPQSAYVKAFYQKGN [SMC1]
4. MTAQQAPKWYPSEDVAA [RPL6B]
5. LDDWISIGYETELKKIT [IRR1]

Key:
3.19
2.38
1.87
1.77
2.09

###

experiment: protein stability index of a GFP-peptide fusion (yeast GPS) (PSI 1-4); higher = more stable; sorted into four equal gates, so the index is relative within each strain; details: ubr1∆
READOUT_NAME: protein stability index
Numbers only.

CHAIN_SEQUENCE: NKKGRGHVKPVRCVNCS [RPS26A]
READOUT_NAME: protein stability index
OBSERVED_VALUE: 3.02

Hey, quick one: what's protein stability index for each of these?
1. IPDHLAELIPELYSFQQ [SNF12]
2. NQTRKAHRNGIKKPKTY [RPL29]
3. KKEEEEQLSEEDAKLKT [RPN1]
4. VNADDDDFMHSETREKE [RPB4]
5. AKDKEIYNKMIGVLNNS [RPN13]

Key:
1: 2.93; 2: 2.99; 3: 3.06; 4: 1.99; 5: 2.93

Hey, quick one: what's protein stability index for each of these?
1. SSNPQSAYVKAFYQKGN [SMC1]
2. RMAKLCARFLGNRGFSI [RPO31]

Key:
1.95
2.93
